Target of assay: 5-HT1A receptor (Homo sapiens)
Construct: host or cells: CHO cells
Protocol notes: cell-based
Applied conditions: Ca^2+ flux, agonist; read-out: 5-HT1A EC50
pEC50: −log10 of the molar value.
Listing of entries alongside the reported pEC50.
Observation type: pEC50

>>> assay_value("CC[C@@H](C)NC(=O)[C@@H]1C=C2c3cccc4[nH]cc(c34)C[C@H]2N(C)C1")
8.01
>>> assay_value("CCN(CC)C(=O)[C@H]1C=C2c3cccc4[nH]cc(c34)C[C@H]2N(CCCF)C1")
6.27
>>> assay_value("CCCN1C[C@H](C(=O)N(CC)CC)C=C2c3cccc4[nH]c(Br)c(c34)C[C@H]21")
7.02

---

Protocol notes: Metabolic stability in mouse liver microsomes (MLM)
Format: in vitro ADME
Applied conditions: mouse, pooled mouse liver microsomes, pH 7.4, MLM (CD-1), 0.50 mg protein per mL
Label scheme, based on microsomal CLint at 1 μM: low end: < 400 µL/min/mg; middle: ≥ 400 µL/min/mg and < 800 µL/min/mg; high end: ≥ 800 µL/min/mg

>>> category_label("CCC[C@@H](C)NC(=O)[C@H]1C=C2c3cccc4[nH]cc(c34)C[C@H]2N(C)C1 [Int17a]")
"high end"
>>> category_label("CCN(CC)C(=O)[C@@H]1C=C2c3cccc4[nH]cc(c34)C[C@H]2N(CC2CC2)C1 [Compound 13]")
"low end"
>>> category_label("C=CCN1C[C@H](C(=O)N[C@H](C)CC)C=C2c3cccc4[nH]cc(c34)C[C@H]21 [Compound 8]")
"low end"
>>> category_label("CCCN1C[C@H](C(=O)N[C@H](C)CC)C=C2c3cccc4[nH]cc(c34)C[C@H]21 [Compound 3]")
"high end"
>>> category_label("CCC[C@@H](C)NC(=O)[C@@H]1C=C2c3cccc4[nH]cc(c34)C[C@H]2N(CCC)C1 [Compound 7]")
"high end"
>>> category_label("CCN(CC)C(=O)[C@@H]1C=C2c3cccc4[nH]cc(c34)C[C@H]2N(CCC(F)(F)F)C1 [Compound 12]")
"middle"
>>> category_label("CCC(CC)NC(=O)[C@@H]1C=C2c3cccc4[nH]cc(c34)C[C@H]2N(C)C1 [Int14]")
"low end"
>>> category_label("CCN(CC)C(=O)[C@@H]1C=C2c3cccc4[nH]cc(c34)C[C@H]2N(CCc2ccc(OC)cc2)C1 [Compound 21]")
"middle"
>>> category_label("CC[C@@H](C)NC(=O)[C@@H]1C=C2c3cccc4[nH]cc(c34)C[C@H]2N(CC)C1 [Compound 5]")
"low end"
>>> category_label("CCN(CC)C(=O)[C@@H]1C=C2c3cccc4[nH]cc(c34)C[C@H]2N(Cc2ccccc2O)C1 [Compound 16]")
"high end"
>>> category_label("CCN(CC)C(=O)[C@@H]1C=C2c3cccc4[nH]cc(c34)C[C@H]2N(Cc2ccccn2)C1 [Compound 22]")
"low end"
>>> category_label("CCCN1C[C@H](C(=O)N2[C@@H](C)C[C@@H]2C)C=C2c3cccc4[nH]cc(c34)C[C@H]21 [Compound 4]")
"high end"
>>> category_label("CC[C@@H](C)NC(=O)[C@H]1C=C2c3cccc4[nH]cc(c34)C[C@H]2N(CC)C1 [Compound 5a]")
"high end"
>>> category_label("CCCN1C[C@H](C(=O)N(CC)CC)C=C2c3cccc4[nH]cc(c34)C[C@H]21 [Compound 1]")
"middle"
>>> category_label("CCC[C@@H](C)NC(=O)[C@@H]1C=C2c3cccc4[nH]cc(c34)C[C@H]2N(C)C1 [Int17]")
"low end"

---

Protocol notes: Metabolic stability in human liver microsomes (HLM)
Assay type: in vitro ADME
Applied conditions: 1 μM, 0.50 mg protein per mL
Source text: HLM Stability. Pooled HLM from adult male and female donors (Corning 452117) were used.
Observation type: t1/2 (min)

>>> assay_value("CCN(CC)C(=O)[C@@H]1C=C2c3cccc4[nH]cc(c34)C[C@H]2N(Cc2ccccn2)C1")
23.8
>>> assay_value("CCN(CC)C(=O)[C@@H]1C=C2c3cccc4[nH]cc(c34)C[C@H]2N(CC2CC2)C1")
21.1
>>> assay_value("CCCN1C[C@H](C(=O)NC(CC)CC)C=C2c3cccc4[nH]cc(c34)C[C@H]21")
1.607
>>> assay_value("C=CCN1C[C@@H](C(=O)N[C@H](C)CC)C=C2c3cccc4[nH]cc(c34)C[C@H]21")
3.4
>>> assay_value("CCN(CC)C(=O)[C@@H]1C=C2c3cccc4[nH]cc(c34)C[C@H]2N(CCCF)C1")
19.061
>>> assay_value("CCC[C@@H](C)NC(=O)[C@H]1C=C2c3cccc4[nH]cc(c34)C[C@H]2N(C)C1 [Int17a]")
4.578
>>> assay_value("CCC(CC)NC(=O)[C@H]1C=C2c3cccc4[nH]cc(c34)C[C@H]2N(C)C1 [Int14a]")
3.35
>>> assay_value("CCN(CC)C(=O)[C@@H]1C=C2c3cccc4[nH]cc(c34)C[C@H]2N(Cc2cccc(OC)c2)C1")
13.6

---

pKi: −log10 of the molar value.
5-HT2B receptor (Homo sapiens) data, read-out pKi
Sequence (P41595 whole entry): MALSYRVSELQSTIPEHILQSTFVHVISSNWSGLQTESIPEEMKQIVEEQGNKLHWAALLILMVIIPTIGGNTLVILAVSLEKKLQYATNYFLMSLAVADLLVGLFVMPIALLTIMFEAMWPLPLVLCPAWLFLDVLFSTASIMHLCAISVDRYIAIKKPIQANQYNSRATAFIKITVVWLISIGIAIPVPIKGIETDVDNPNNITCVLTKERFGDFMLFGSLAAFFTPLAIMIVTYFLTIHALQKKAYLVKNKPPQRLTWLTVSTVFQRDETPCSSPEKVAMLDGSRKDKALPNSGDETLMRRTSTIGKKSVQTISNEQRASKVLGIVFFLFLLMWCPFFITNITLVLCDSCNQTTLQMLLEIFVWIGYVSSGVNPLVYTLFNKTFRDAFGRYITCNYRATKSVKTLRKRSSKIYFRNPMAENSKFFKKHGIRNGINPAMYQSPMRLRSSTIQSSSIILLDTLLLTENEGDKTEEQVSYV
Observation type: pKi

>>> assay_value("CCCN1C[C@H](C(=O)N[C@H](C)CC)C=C2c3cccc4[nH]cc(c34)C[C@H]21")
8.39
>>> assay_value("CCCN1C[C@H](C(=O)NC(CC)CC)C=C2c3cccc4[nH]cc(c34)C[C@H]21")
8.48
>>> assay_value("CCCN1C[C@H](C(=O)N2[C@@H](C)C[C@@H]2C)C=C2c3cccc4[nH]cc(c34)C[C@H]21")
7.75
>>> assay_value("CCN(CC)C(=O)[C@@H]1C=C2c3cccc4[nH]cc(c34)C[C@H]2N(CCCF)C1")
8.39

---

Parameter EC50: see the listing below.
Target of assay: 5-HT1B receptor (Homo sapiens, UniProt P28222)
Sequence (P28222 whole entry): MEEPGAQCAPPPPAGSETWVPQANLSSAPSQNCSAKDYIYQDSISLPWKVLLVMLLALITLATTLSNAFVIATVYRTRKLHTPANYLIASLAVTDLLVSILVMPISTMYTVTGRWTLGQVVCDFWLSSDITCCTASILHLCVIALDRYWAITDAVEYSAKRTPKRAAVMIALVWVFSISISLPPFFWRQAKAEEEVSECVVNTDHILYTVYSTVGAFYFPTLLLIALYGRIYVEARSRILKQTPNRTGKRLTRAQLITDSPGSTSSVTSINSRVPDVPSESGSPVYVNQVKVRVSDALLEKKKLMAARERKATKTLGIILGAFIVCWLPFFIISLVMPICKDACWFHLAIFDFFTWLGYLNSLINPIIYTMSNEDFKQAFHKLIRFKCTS
Protocol notes: cAMP accumulation agonist assay at 5-HT1B
Type: cell-based
Applied conditions: cAMP, agonist; read-out: 5-HT1B EC50
Observation type: EC50 (nM)

>>> assay_value("CCN(CC)C(=O)[C@@H]1C=C2c3cccc4[nH]cc(c34)C[C@H]2N(CCc2ccc(OC)cc2)C1 [Compound 21]")
2750
>>> assay_value("CCC[C@@H](C)NC(=O)[C@@H]1C=C2c3cccc4[nH]c(Br)c(c34)C[C@H]2N(C)C1 [Compound 45]")
245
>>> assay_value("CCN(CC)C(=O)[C@@H]1C=C2c3cccc4[nH]cc(c34)C[C@H]2N(Cc2cccc(OC)c2)C1 [Compound 18]")
1780
>>> assay_value("CCN(CC)C(=O)[C@@H]1C=C2c3cccc4[nH]cc(c34)C[C@H]2N(CCCF)C1 [Compound 2]")
193

---

Target of assay: 5-HT1A receptor (Homo sapiens, UniProt P08908)
Construct: host or cells: CHO cells
Sequence (P08908 whole entry): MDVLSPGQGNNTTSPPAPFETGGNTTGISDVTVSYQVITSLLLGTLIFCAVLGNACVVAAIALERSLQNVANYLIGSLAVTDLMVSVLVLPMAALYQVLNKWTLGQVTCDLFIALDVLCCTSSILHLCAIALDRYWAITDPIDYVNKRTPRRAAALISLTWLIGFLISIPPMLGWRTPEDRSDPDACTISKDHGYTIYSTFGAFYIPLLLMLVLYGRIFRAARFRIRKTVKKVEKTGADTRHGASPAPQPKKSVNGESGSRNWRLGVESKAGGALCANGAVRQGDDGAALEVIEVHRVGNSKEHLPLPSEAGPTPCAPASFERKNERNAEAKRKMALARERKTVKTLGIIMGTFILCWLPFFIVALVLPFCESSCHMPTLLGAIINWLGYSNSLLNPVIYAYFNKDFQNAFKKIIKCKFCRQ
Protocol notes: cell-based
Applied conditions: Ca^2+ flux, agonist
Procedure: Functional Assays at 5-HT2A, 5-HT2B, and 5-HT1A. Agonist activity at 5-HT2A, 5-HT2B, and 5-HT1A receptors was determined using a FLIPR Ca^2+ flux assay at WuXi AppTec (Hong Kong) Limited according to their standard protocols. […] 10 μL of references and compounds were then transferred from the compound plate into the cell plate and the fluorescent signal was read.
Observation type: 5-HT1A % Act @ Max Dose

>>> assay_value("CC[C@@H](C)NC(=O)[C@@H]1C=C2c3cccc4[nH]c(Br)c(c34)C[C@H]2N(C)C1")
"6.30%"
>>> assay_value("CN1C[C@H](C(=O)N(CCF)CCF)C=C2c3cccc4[nH]cc(c34)C[C@H]21")
"90.5%"
>>> assay_value("CCCN1C[C@H](C(=O)N(CC)CC)C=C2c3cccc4[nH]c(Br)c(c34)C[C@H]21")
"101.39%"
>>> assay_value("CCN(CC)C(=O)[C@@H]1C=C2c3cccc4[nH]cc(c34)C[C@H]2N(Cc2ccc(OC)cc2)C1")
"−0.65%"

---

Target of assay: 5-HT2A receptor (Homo sapiens)
Construct: host or cells: HEK293
Sequence (P28223 whole entry): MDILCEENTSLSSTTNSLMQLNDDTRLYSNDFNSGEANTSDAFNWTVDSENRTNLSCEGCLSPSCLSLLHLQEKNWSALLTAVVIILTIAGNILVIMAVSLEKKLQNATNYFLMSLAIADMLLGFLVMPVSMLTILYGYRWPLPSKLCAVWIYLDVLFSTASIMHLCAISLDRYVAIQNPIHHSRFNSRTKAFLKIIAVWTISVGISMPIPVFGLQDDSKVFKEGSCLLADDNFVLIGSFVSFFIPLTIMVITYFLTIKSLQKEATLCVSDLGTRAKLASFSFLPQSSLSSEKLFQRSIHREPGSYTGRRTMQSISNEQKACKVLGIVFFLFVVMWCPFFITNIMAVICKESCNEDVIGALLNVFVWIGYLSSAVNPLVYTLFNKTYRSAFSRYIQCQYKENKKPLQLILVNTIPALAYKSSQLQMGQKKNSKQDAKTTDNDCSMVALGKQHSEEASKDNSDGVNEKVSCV
Protocol notes: PathHunter beta-arrestin recruitment assay at 5-HT2A
Assay type: cell-based
Description: The degree of arrestin bias varied substantially across the other compounds tested as well. Arrestin Functional Assay at 5-HT2A. Recruitment of beta-arrestin was determined using a PathHunter assay at Eurofins DiscoverX (Fremont, Calif.) according to their standard protocols. […] This interaction leads to an increase in enzyme activity that can be measured using chemiluminescent PathHunter Detection Reagents. […]
Observation type: EC50 (nM)

>>> assay_value("CCC[C@@H](C)NC(=O)[C@@H]1C=C2c3cccc4[nH]cc(c34)C[C@H]2N(CCC)C1")
1.6
>>> assay_value("CCC[C@@H](C)NC(=O)[C@@H]1C=C2c3cccc4[nH]cc(c34)C[C@H]2N(C)C1")
1.19
>>> assay_value("C=CCN1C[C@@H](C(=O)N[C@H](C)CC)C=C2c3cccc4[nH]cc(c34)C[C@H]21")
1180
>>> assay_value("C[C@H]1C[C@H](C)N1C(=O)[C@@H]1C=C2c3cccc4[nH]cc(c34)C[C@H]2N(C)C1")
1.57
>>> assay_value("CC[C@@H](C)NC(=O)[C@@H]1C=C2c3cccc4[nH]cc(c34)C[C@H]2N(CC)C1")
1.92
>>> assay_value("CCCN1C[C@@H](C(=O)N[C@H](C)CC)C=C2c3cccc4[nH]cc(c34)C[C@H]21")
54
>>> assay_value("CC[C@@H](C)NC(=O)[C@H]1C=C2c3cccc4[nH]cc(c34)C[C@H]2N(C)C1")
19.3
>>> assay_value("CCN(CC)C(=O)[C@H]1C=C2c3cccc4[nH]cc(c34)C[C@H]2N(CCCF)C1")
50.6
